# Target: T1, human insulin receptor isoform without exon 11 (human, UniProt P06213-2 28-1370, limits assumed)
# T1 construct: also called HIR-11; HIR - 11
# T1 sequence (P06213 other isoform, or with tags, fused parts or gaps limits assumed): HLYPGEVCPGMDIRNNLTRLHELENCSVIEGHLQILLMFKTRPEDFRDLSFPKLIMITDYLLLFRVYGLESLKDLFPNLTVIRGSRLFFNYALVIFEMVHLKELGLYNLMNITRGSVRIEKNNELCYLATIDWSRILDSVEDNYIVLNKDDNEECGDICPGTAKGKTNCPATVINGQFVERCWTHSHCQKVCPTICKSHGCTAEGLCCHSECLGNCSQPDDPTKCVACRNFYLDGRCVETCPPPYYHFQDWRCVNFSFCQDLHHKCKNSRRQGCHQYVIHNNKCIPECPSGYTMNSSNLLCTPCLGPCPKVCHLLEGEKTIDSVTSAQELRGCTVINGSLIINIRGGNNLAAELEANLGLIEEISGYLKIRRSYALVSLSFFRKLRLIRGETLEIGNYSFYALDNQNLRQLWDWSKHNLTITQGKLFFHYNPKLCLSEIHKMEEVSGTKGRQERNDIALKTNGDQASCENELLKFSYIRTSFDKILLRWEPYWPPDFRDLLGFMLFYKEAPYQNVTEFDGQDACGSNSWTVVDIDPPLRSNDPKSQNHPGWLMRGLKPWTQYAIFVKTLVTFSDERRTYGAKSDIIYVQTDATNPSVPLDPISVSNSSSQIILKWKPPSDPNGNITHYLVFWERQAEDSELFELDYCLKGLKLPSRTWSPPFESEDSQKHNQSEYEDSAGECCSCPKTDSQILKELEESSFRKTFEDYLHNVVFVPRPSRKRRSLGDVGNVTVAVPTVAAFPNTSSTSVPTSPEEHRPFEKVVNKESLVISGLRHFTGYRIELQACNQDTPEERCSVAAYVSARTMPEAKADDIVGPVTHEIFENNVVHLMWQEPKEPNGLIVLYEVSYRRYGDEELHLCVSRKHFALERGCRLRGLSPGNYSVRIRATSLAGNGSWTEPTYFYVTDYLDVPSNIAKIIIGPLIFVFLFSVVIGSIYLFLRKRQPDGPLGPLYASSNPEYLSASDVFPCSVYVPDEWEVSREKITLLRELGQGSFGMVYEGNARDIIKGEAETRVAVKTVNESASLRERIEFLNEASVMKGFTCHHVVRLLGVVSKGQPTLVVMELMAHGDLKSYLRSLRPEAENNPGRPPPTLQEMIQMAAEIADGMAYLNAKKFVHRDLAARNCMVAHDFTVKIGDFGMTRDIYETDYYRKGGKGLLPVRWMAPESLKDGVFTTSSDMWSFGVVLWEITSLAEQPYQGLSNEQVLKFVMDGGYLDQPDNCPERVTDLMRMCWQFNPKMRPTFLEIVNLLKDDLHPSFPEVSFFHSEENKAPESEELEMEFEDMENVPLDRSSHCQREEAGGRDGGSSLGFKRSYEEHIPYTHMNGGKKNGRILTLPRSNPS
# Method: receptor binding, standard methods (FIG. 2)
Ends that are not written are not given here.
For each of the binders below, state its relative affinity.
Give bare numbers.

Hi there! I need relative affinity for each item below, if you can.
1. Ac-SLEEEWAQIQCEVWGRGCPSESFYGWFERQLG (cysteine pairing not given here) [S733]
2. SLEEEWAQVECEVYERGCPSESFYDWFERQL [S696]
3. Ac-SLEEEWAQIECEVWGRGCPSEGFYNAIELLS (cysteine pairing not given here) [S726]
4. SLEEEWAQIEAEVWGRGAPSESFYDWFERQLG [S574]
5. {MeO‑PEG5000}-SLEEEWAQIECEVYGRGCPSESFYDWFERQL (cysteine pairing not given here) [S660]
6. Ac-SLEEEWAQIQCEVWGRGCPSESFYGWFERQL (cysteine pairing not given here) [S667]

1. 281
2. 3.3
3. 83
4. 8.3
5. 52
6. 111
